biological target: T1, human LILRA5 (human, UniProt A6NI73 42-299); test: flow cytometry, LILRA5 CHOs
T1 construct: Over-expressed on CHO-s cells; also called hLILRA5
T1 sequence (A6NI73 42-299 limits assumed): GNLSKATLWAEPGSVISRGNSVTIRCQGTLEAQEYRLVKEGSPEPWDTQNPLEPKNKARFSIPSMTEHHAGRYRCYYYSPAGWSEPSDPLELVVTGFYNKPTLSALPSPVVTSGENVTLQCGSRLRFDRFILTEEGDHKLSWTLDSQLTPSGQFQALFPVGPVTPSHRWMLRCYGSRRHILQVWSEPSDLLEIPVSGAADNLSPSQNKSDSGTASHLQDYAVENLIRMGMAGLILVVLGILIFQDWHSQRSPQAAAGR
MEASURED METRIC: binding (fold over iso)
Numbers only here, please. The scale is fold over iso.

Reported binding (fold over iso), binder J-17 (antibody, human IgG4 S228P, kappa, V domains shown, Human IgG4 chimera of murine origin; also called J-17.h) VH: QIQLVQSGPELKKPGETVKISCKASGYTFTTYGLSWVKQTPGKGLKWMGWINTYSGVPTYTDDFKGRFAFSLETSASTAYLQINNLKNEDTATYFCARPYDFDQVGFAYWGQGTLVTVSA VL: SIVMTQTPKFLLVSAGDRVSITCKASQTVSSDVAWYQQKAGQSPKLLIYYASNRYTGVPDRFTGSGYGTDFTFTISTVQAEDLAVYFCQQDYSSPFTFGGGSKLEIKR : ____
0.82
